compounds and their reported growth
tested on: BT-549 breast; experiment: NCI-60 one-dose screen, 48 h (100 = growth as untreated, 0 = no growth, -100 = all killed); settings: 10 µM unless noted
The panel holds about 83,000 compounds, 20% with a hit somewhere; the sample as a whole holds those more often.
// note: answer is a bare numeric in %

Worked examples, 3 compounds total:
Cn1cc(C(=O)c2nc(-c3c[nH]c4ccc(Br)cc34)no2)c2cc(Br)ccc21; 79
COc1ccc(C2=Nc3c(N)ncnc3NC(c3cccc(Nc4ccnc5cc(C(F)(F)F)ccc45)c3)C2)cc1 (centres undefined); 80.7
COc1ccc(-c2cc(-c3ccc(OC)cc3)nc(NCCCNc3ccnc4cc(Cl)ccc34)n2)cc1; 81.2

Now consider a different compound.
Q: Suppose we examine the compound CC(C)(C)C(=O)/C=C/c1ccc([N+](=O)[O-])cc1 ; what growth value has been reported?
Result: 78.5
